PROCEDURE SUMMARY: Clearance in rat at 1 mg/kg, iv
Type: ADME, organism-based
TEST PARAMETERS: in vivo
MEASURED ATTRIBUTE: clearance (mL/min/kg)

In [3]: df
Out[3]:
                                chem_smiles  numeric_result
0  CC1(C)Cc2c(sc(NC(=O)c3ccn[nH]3)c2C(N)=O)C(C)(C)O1              32

###

PROCEDURE SUMMARY: Half life in rat at 1 mg/kg, iv
Type: ADME, organism-based
TEST PARAMETERS: in vivo
MEASURED ATTRIBUTE: half-life

In [3]: df
Out[3]:
                                chem_smiles   result
0  CC1(C)Cc2c(sc(NC(=O)c3ccn[nH]3)c2C(N)=O)C(C)(C)O1  110 min
